Each record here notes measured Decrease.
assay: Percent decrease in triglyceride level of wistar rat was determined at 10 mg/kg dosage of the compound; format: ADME, organism-based; parameters: dose 10 mg/kg; settings: in vivo
Property Measured: Decrease (%)

>>> val("CN(CCOc1ccc(CC2SC(=O)NC2=O)cc1)c1ccccn1 (configuration not stated)")
35.25
>>> val("Cc1cc2c(cc1C)N(CCCOc1ccc(/C=C3/SC(=O)NC3=O)cc1)C(c1ccccc1)C(=O)N2 (configuration not stated)")
10.66
>>> val("Cc1cc2c(cc1C)N(CCOc1ccc(/C=C3/SC(=O)NC3=O)cc1)CC(=O)N2")
44.2
>>> val("Cc1cc2c(cc1C)N(CCCOc1ccc(/C=C3/SC(=O)NC3=O)cc1)C(C)C(=O)N2 (configuration not stated)")
29.69
>>> val("Cc1cc2c(cc1C)N(CCOc1ccc(/C=C3/SC(=O)NC3=O)cc1)C(c1ccccc1)C(=O)N2 (configuration not stated)")
20.36
>>> val("Cc1cc2c(cc1C)N(CCCOc1ccc(/C=C3/SC(=O)NC3=O)cc1)CC(=O)N2")
38.13
>>> val("Cc1cc2c(cc1C)N(CCOc1ccc(/C=C3/SC(=O)NC3=O)cc1)C(C)C(=O)N2 (configuration not stated)")
32.62

###

experiment: Percent decrease in plasma glucose level of wistar rat was determined at 3 mg/kg dosage of the compound; assay type: ADME, organism-based; parameters: dose 3 mg/kg; conditions: in vivo
Label rule, in plain words: Decrease of 40% and up is rule met, under 40% is rule not met.

>>> category("CN(CCOc1ccc(CC2SC(=O)NC2=O)cc1)c1ccccn1 (configuration not stated) [ROSIGLITAZONE]")
"rule met"
>>> category("Cc1cc2c(cc1C)N(CCCOc1ccc(/C=C3/SC(=O)NC3=O)cc1)C(c1ccccc1)C(=O)N2 (configuration not stated)")
"rule not met"
>>> category("Cc1cc2c(cc1C)N(CCOc1ccc(/C=C3/SC(=O)NC3=O)cc1)C(C)C(=O)N2 (configuration not stated)")
"rule met"
>>> category("Cc1cc2c(cc1C)N(CCCOc1ccc(/C=C3/SC(=O)NC3=O)cc1)CC(=O)N2")
"rule met"
>>> category("Cc1cc2c(cc1C)N(CCCOc1ccc(/C=C3/SC(=O)NC3=O)cc1)C(C)C(=O)N2 (configuration not stated)")
"rule not met"
>>> category("Cc1cc2c(cc1C)N(CCOc1ccc(/C=C3/SC(=O)NC3=O)cc1)CC(=O)N2")
"rule met"
>>> category("Cc1cc2c(cc1C)N(CCOc1ccc(/C=C3/SC(=O)NC3=O)cc1)C(c1ccccc1)C(=O)N2 (configuration not stated)")
"rule not met"

###

assay: Percent decrease in plasma glucose level of wistar rat was determined at 10 mg/kg dosage of the compound; type: ADME, organism-based; set-up: dose 10 mg/kg; conditions: in vivo
Could you mark each record 1 if its Decrease falls strictly under 40%, and -1 if it equals or exceeds it?

>>> category("CN(CCOc1ccc(CC2SC(=O)NC2=O)cc1)c1ccccn1 (configuration not stated)")
-1
>>> category("Cc1cc2c(cc1C)N(CCCOc1ccc(/C=C3/SC(=O)NC3=O)cc1)C(c1ccccc1)C(=O)N2 (configuration not stated)")
1
>>> category("Cc1cc2c(cc1C)N(CCCOc1ccc(/C=C3/SC(=O)NC3=O)cc1)CC(=O)N2")
-1
>>> category("Cc1cc2c(cc1C)N(CCOc1ccc(/C=C3/SC(=O)NC3=O)cc1)C(C)C(=O)N2 (configuration not stated)")
-1
>>> category("Cc1cc2c(cc1C)N(CCOc1ccc(/C=C3/SC(=O)NC3=O)cc1)C(c1ccccc1)C(=O)N2 (configuration not stated)")
1
>>> category("Cc1cc2c(cc1C)N(CCOc1ccc(/C=C3/SC(=O)NC3=O)cc1)CC(=O)N2")
-1

###

Here the recorded Decrease is given for each entry.
assay: Percent decrease in triglyceride level of wistar rat was determined at 30 mg/kg dosage of the compound; assay type: ADME, organism-based; parameters: dose 30 mg/kg; settings: in vivo
Property Measured: Decrease

>>> val("Cc1cc2c(cc1C)N(CCCOc1ccc(/C=C3/SC(=O)NC3=O)cc1)CC(=O)N2")
"47.35%"
>>> val("Cc1cc2c(cc1C)N(CCCOc1ccc(/C=C3/SC(=O)NC3=O)cc1)C(C)C(=O)N2 (configuration not stated)")
"28.82%"
>>> val("Cc1cc2c(cc1C)N(CCOc1ccc(/C=C3/SC(=O)NC3=O)cc1)C(c1ccccc1)C(=O)N2 (configuration not stated)")
"22.46%"
>>> val("CN(CCOc1ccc(CC2SC(=O)NC2=O)cc1)c1ccccn1 (configuration not stated)")
"41%"
>>> val("Cc1cc2c(cc1C)N(CCOc1ccc(/C=C3/SC(=O)NC3=O)cc1)CC(=O)N2")
"49.12%"
>>> val("Cc1cc2c(cc1C)N(CCCOc1ccc(/C=C3/SC(=O)NC3=O)cc1)C(c1ccccc1)C(=O)N2 (configuration not stated)")
"14.73%"
>>> val("Cc1cc2c(cc1C)N(CCOc1ccc(/C=C3/SC(=O)NC3=O)cc1)C(C)C(=O)N2 (configuration not stated)")
"40%"

###

test: Percent decrease in plasma glucose level of wistar rat was determined at 100 mg/kg dosage of the compound; format: ADME, organism-based; set-up: dose 100 mg/kg; conditions: in vivo
Property Measured: Decrease (%)

>>> val("CN(CCOc1ccc(CC2SC(=O)NC2=O)cc1)c1ccccn1 (configuration not stated)")
75.5
>>> val("Cc1cc2c(cc1C)N(CCOc1ccc(/C=C3/SC(=O)NC3=O)cc1)C(C)C(=O)N2 (configuration not stated)")
69.72
>>> val("Cc1cc2c(cc1C)N(CCOc1ccc(/C=C3/SC(=O)NC3=O)cc1)CC(=O)N2")
81.25
>>> val("Cc1cc2c(cc1C)N(CCCOc1ccc(/C=C3/SC(=O)NC3=O)cc1)C(C)C(=O)N2 (configuration not stated)")
64.26
>>> val("Cc1cc2c(cc1C)N(CCCOc1ccc(/C=C3/SC(=O)NC3=O)cc1)CC(=O)N2")
72.33
>>> val("Cc1cc2c(cc1C)N(CCCOc1ccc(/C=C3/SC(=O)NC3=O)cc1)C(c1ccccc1)C(=O)N2 (configuration not stated)")
38.96
>>> val("Cc1cc2c(cc1C)N(CCOc1ccc(/C=C3/SC(=O)NC3=O)cc1)C(c1ccccc1)C(=O)N2 (configuration not stated)")
53.96

###

assay: Percent decrease in triglyceride level of wistar rat was determined at 100 mg/kg dosage of the compound; type: ADME, organism-based; parameters: dose 100 mg/kg; settings: in vivo
Classify: condition met when Decrease is strictly less than 40%; condition not met when Decrease is not.

>>> category("Cc1cc2c(cc1C)N(CCOc1ccc(/C=C3/SC(=O)NC3=O)cc1)CC(=O)N2")
"condition not met"
>>> category("Cc1cc2c(cc1C)N(CCCOc1ccc(/C=C3/SC(=O)NC3=O)cc1)C(C)C(=O)N2 (configuration not stated)")
"condition met"
>>> category("Cc1cc2c(cc1C)N(CCCOc1ccc(/C=C3/SC(=O)NC3=O)cc1)C(c1ccccc1)C(=O)N2 (configuration not stated)")
"condition met"
>>> category("Cc1cc2c(cc1C)N(CCOc1ccc(/C=C3/SC(=O)NC3=O)cc1)C(C)C(=O)N2 (configuration not stated)")
"condition not met"
>>> category("Cc1cc2c(cc1C)N(CCOc1ccc(/C=C3/SC(=O)NC3=O)cc1)C(c1ccccc1)C(=O)N2 (configuration not stated)")
"condition met"
>>> category("CN(CCOc1ccc(CC2SC(=O)NC2=O)cc1)c1ccccn1 (configuration not stated) [ROSIGLITAZONE]")
"condition not met"
>>> category("Cc1cc2c(cc1C)N(CCCOc1ccc(/C=C3/SC(=O)NC3=O)cc1)CC(=O)N2")
"condition not met"

Numbers sourced from ChEMBL document CHEMBL1140267.
